PROCEDURE TEXT: in vitro
ASSAY SETUP: human, hepg2 cells
EXPERIMENTAL ENDPOINT: CC50 at 48 h (µM)
# unit: µM | format: bare number

STRUCTURE SMILES | CC50 at 48 h / µM
Fc1cccc(NC(S)=NNc2c3ccccc3nc3ccccc23)c1 | 0.968

QUERY: Tell me the measured CC50 at 48 h of COc1ccc2nc3cc(Cl)ccc3c(Nc3cc(C(C)C)c(O)cc3C)c2c1 , please.
RESULT: 43.2

QUERY: Endpoint output: CC50 at 48 h of CCN(CC)CCCNC(=O)c1ccc2c(c1)N(Cc1c(F)cccc1Cl)C(=O)c1ccccc1S2 . Value?
RESULT: 38.5

QUERY: Form field: reported CC50 at 48 h of CC(=O)C1=C(c2ccc(Cl)c(Cl)c2)N(C(C)=O)n2cnnc2S1
RESULT: 43.2

###

Test system: P. berghei-ANKA-GFP-LucCON liver stage parasites in HepG2-A16-CD81EGFP cells
PROCEDURE TEXT: P. berghei liver stage Pb-Luc assay, Method 1 (UCSD, 1536-well)
Type: cell-based, Plasmodium berghei
ASSAY SETUP: Plasmodium berghei, 48 h, 1 uM (compounds provided at 10 mM); average of 2 wells on a 1536 well plate; column 11; read-out: Pb-Luc (P. berghei liver stage), % of control, lower concentration, first repeat
Item-by-item account of activity at 1 µM
// return numeric value only (unit: %, not printed)

Some solved cases for reference:
COMPOUND | UNIT TEXT | activity at 1 µM
Cc1ccc(C)c(NC(=O)CN(C)C(=O)c2ccc(-c3cccc(C(F)(F)F)c3)o2)c1 | % | 171
COc1cc(O)c(C(CCN2CCN(c3ccccc3)CC2)c2cc(OC)c(OC)c(OC)c2)c(OC)c1 (centres unmarked) | % | 87
CC(C)(C)CC(C)(C)c1ccc(O)c(CN2CCN(CCC#N)CC2)c1 | % | 129

QUERY: State the recorded activity at 1 µM for this entry: Cn1c(S)nc2sc3c(c2c1=O)CCC(C(C)(C)C)C3 (centres unmarked)
RESULT: 80

QUERY: Query: activity at 1 µM; subject: CCOC(=O)c1ccc(N=C(S)N2CCN(CCNC3=CC(=O)CC(C)(C)C3)CC2)cc1
RESULT: 118

###

System: Plasmodium falciparum Dd2-attB-ScDHODH (transgenic line expressing yeast DHODH), asexual blood stages
Construct: Dd2-attB-ScDHODH, the transgenic line that expresses yeast DHODH
PROCEDURE TEXT: organism not typed
Set-up: replicate k of 3 (each line is one of three independent assays; the three lines of one compound and parasite line follow each other)
ASSAY SETUP: 72 h; n = 1; read-out: Individual replicates / Log AC50 (converted)
Label key: Yes means AC50 under 10 µM; No means AC50 of 10 µM or more.

Example results:
COMPOUND | CATEGORY LABEL
CN(C)CCCN1CCN(C(=O)c2cccc(-c3cc(O)c4ncccc4c3)c2)CC1 | No
CC1CN(Cc2ccccc2)CCN1c1cnc2c(O)ccc(C(=O)O)c2c1 (stereo not drawn) | No
Oc1ccc(CNc2cccc(F)c2)c2cccnc12 | No
O=C(NCCCN1CCCCC1)c1cccc(-c2cc(O)c3ncccc3c2)c1 | Yes
NC(=O)c1cccc(-c2cnc3c(O)ccc(C(=O)O)c3c2)c1 | No

QUERY: Could you please tell me whether AC50 recorded for CC(NCCN1CCCCC1)c1cnn(-c2cc(CO)ccn2)c1-c1cccc(-c2ccccc2)c1 (stereo not drawn) is less than 10 µM?
RESULT: Yes

QUERY: Item COC(=O)c1ccnc(NCc2ccc(O)c3ncccc23)c1 : AC50 beneath 10 µM, strictly?
RESULT: No

QUERY: Problem: For the compound CC1(C)OB(c2ccc(O)c3ncc(N4CCNCC4)cc23)OC1(C)C , is AC50 under 10 µM?
RESULT: Yes

###

System: Plasmodium falciparum Dd2 asexual blood stage parasites
PROCEDURE TEXT: microbe, parasite or virus in culture
Set-up: species or system Plasmodium falciparum Dd2 in human erythrocytes; single determination (one 11-point concentration-response curve)
ASSAY SETUP: Plasmodium falciparum, DD2, Erythrocyte, 72 h; read-out: AC50
Items are presented alongside their recorded AC50.
Could you give me the number in µM? Just the number is fine.

Known results for compounds:
COMPOUND | EXPERIMENTAL ENDPOINT | UNIT TEXT | REPORTED VALUE
COc1cccc(NC(=O)c2sc3nc(C)c(C(=O)Nc4ccc(C)cc4C)c(-c4ccccc4Cl)c3c2N)c1 [NCGC00104946-01] | AC50 | µM | 2.66
Cc1cc(Nc2ccc(Br)c(C)c2)n2nc(C)nc2n1 [MLS000116638-01] | AC50 | µM | 1.33
COc1ccc(C2c3ccc(O)cc3Oc3ncn4nc(-c5ccncc5)nc4c32)cc1OC (stereo not drawn) [MLS000778948-01] | AC50 | µM | 15
O=C(c1nnc(COc2ccc(OC(F)(F)F)cc2)n1-c1ccccc1)N1CCC[C@@H]1C(c1ccccc1)c1ccccc1 [NCGC00415795-01] | AC50 | µM | 8.41
O=S(=O)(c1ccccc1)c1nnn2c1nc(NC1CCN(Cc3ccccc3)CC1)c1cc(Cl)ccc12 [MLS000925207-01] | AC50 | µM | 2.99
Cc1[nH]n(-c2ccccc2)c(=O)c1/C=N/Nc1nncc(-c2ccccc2)n1 [MLS000579075-01] | AC50 | µM | 4.22

QUERY: AC50 for CCN(CC)c1cc(C)c2cc(NC(=O)/C=C/c3cc(OC)c(OC)c(OC)c3)ccc2n1 [NCGC00104274-01] ?
RESULT: 4.73

###

Test system: P. falciparum Dd2 Cytb A122D
PROCEDURE TEXT: SYBR Green ABS proliferation assay, NCGC00473217 selected clone F12
Format: cell-based, Plasmodium falciparum
ASSAY SETUP: Plasmodium falciparum, DD2, […]; averaged from three independent replicates; top concentration 29 µM; read-out: Average AC50 (Log[M]), NCGC00473217 clone F12 (Cytb A122D) (converted)
Recorded AC50 values for a group of compounds are listed next.

Example cases with answers are listed next.
STRUCTURE SMILES | TARGET OR SYSTEM | AC50
CCCN1C(CC(C)C)=N[S+](=O)([O-])c2cc(NC(=O)COc3ccccc3)ccc21 | P. falciparum Dd2 Cytb A122D | 1.36e-05 M
CCCN1C(CC(C)C)=N[S+](=O)([O-])c2cc(NC(=O)c3ccc(Cl)c(Cl)c3)ccc21 | P. falciparum Dd2 Cytb A122D | 8.93e-06 M
CCCN1C(CC(C)C)=N[S+](=O)([O-])c2cc(NC(=O)c3ncco3)ccc21 | P. falciparum Dd2 Cytb A122D | 7.96e-06 M
CCCN1C(CC(C)C)=N[S+](=O)([O-])c2cc(NC(=O)c3ccco3)ccc21 | P. falciparum Dd2 Cytb A122D | 3.56e-06 M
CCCN1C(CC(C)C)=N[S+](=O)([O-])c2cc(NC(=O)c3ccc(C)o3)ccc21 | P. falciparum Dd2 Cytb A122D | 7.96e-06 M
CCCN1C(CC(C)C)=N[S+](=O)([O-])c2cc(NC(=O)c3ccc(Cl)s3)ccc21 | P. falciparum Dd2 Cytb A122D | 5.86e-06 M
CCCN1C(CC(C)C)=N[S+](=O)([O-])c2cc(NC(=O)c3sccc3F)ccc21 | P. falciparum Dd2 Cytb A122D | 1.31e-06 M
CCCN1C(CC(C)C)=N[S+](=O)([O-])c2cc(NC(=O)c3cc4cccnc4s3)ccc21 | P. falciparum Dd2 Cytb A122D | 2.99e-06 M
CCCN1C(CC(C)C)=N[S+](=O)([O-])c2cc(NC(=O)C3CCCCC3)ccc21 | P. falciparum Dd2 Cytb A122D | 1.04e-05 M
CCCN1C(CC(C)C)=N[S+](=O)([O-])c2cc(NC(=O)c3cc4ccccc4s3)ccc21 | P. falciparum Dd2 Cytb A122D | 4.48e-06 M

QUERY: Using the record for CCCN1C(CC(C)C)=N[S+](=O)([O-])c2cc(NC(=O)COC)ccc21 , report its AC50.
RESULT: 1.12e-05 M

QUERY: Dear colleague, I am looking for the recorded AC50 of the following compound: CC(C)CC1=N[S+](=O)([O-])c2cc(NC(=O)c3ccco3)ccc2N1C
RESULT: 5.02e-06 M

QUERY: I'd like to know its AC50. The compound in question is CCCN1C(CC(C)C)=N[S+](=O)([O-])c2cc(NC(=O)c3cccc(F)c3)ccc21
RESULT: 2.72e-06 M

QUERY: Look up AC50: CCCN1C(CC(C)C)=N[S+](=O)([O-])c2cc(NC(=O)c3cc(C)on3)ccc21
RESULT: 2e-06 M

QUERY: Could you share which AC50 value was measured for CCCN1C(CC(C)C)=N[S+](=O)([O-])c2cc(NC(=O)c3cnn4cccnc34)ccc21 ?
RESULT: 6.84e-06 M

The values you see were collected from paper PMC7822874.
